- System Name: human recombinant kinase full-length AKT1 E17K (Homo sapiens, UniProt P31749, E17K)
- Construct: Purified human recombinant kinase full-length AKT1 E17K was expressed in insect cells
- Sequence (P31749 whole entry E17K): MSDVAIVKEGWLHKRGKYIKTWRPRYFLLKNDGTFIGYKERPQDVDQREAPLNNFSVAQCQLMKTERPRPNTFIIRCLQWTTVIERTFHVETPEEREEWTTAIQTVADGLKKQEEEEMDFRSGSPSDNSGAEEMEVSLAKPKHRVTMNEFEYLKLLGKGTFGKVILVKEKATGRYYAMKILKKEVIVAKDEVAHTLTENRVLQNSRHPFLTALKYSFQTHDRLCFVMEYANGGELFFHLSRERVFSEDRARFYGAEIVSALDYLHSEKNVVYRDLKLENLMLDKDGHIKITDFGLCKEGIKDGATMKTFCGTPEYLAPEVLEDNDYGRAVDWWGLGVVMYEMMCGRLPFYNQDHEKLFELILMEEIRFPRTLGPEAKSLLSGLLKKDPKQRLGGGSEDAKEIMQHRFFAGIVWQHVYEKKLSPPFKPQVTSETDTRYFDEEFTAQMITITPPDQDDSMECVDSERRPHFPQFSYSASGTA
- Method: AKT1 E17K kinase assay (TR-FRET, Lance)
- Study Conditions: 0.6 nM AKT1 E17K, 50 nM Ulight-CREBtide, either 50 μM ATP or 2 mM ATP (not specified which), 60 min at RT
pIC50: −log10 of the molar value.

# Chemical Structure, System Name, pIC50
data = [
    ("Nc1ncccc1-c1nc2cc(C(F)(F)F)cnc2n1-c1ccc(CNC(=O)c2ccc(C(=O)O)cc2)cc1", "human recombinant kinase full-length AKT1 E17K (Homo sapiens, UniProt P31749, E17K)", "< 6.30"),
    ("Nc1ncccc1-c1nc2ccc(-c3ccccc3)nc2n1-c1ccc(C2CN(C(=O)c3ccccc3C(=O)O)C2)cc1", "human recombinant kinase full-length AKT1 E17K (Homo sapiens, UniProt P31749, E17K)", "< 6.30"),
    ("Cc1nc(NC(=O)c2ccc(C(=O)O)cc2)ccc1-n1c(-c2cccnc2N)nc2ccc(-c3ccccc3)cc21", "human recombinant kinase full-length AKT1 E17K (Homo sapiens, UniProt P31749, E17K)", "< 6.30"),
    ("Nc1ncccc1-c1nc2ccc(-c3ccccc3)nc2n1-c1ccc(C2CCN(Cc3ccc(C(=O)O)cc3)CC2)cc1", "human recombinant kinase full-length AKT1 E17K (Homo sapiens, UniProt P31749, E17K)", "< 6.30"),
    ("CC(C)Oc1ccc2nc(-c3cccnc3N)n(-c3ccc(NC(=O)c4ccc(C(=O)O)cc4)nc3)c2c1", "human recombinant kinase full-length AKT1 E17K (Homo sapiens, UniProt P31749, E17K)", "< 6.30"),
    ("Nc1ncccc1-c1nc2ccc(-c3ccccc3)nc2n1-c1ccc(CNC(=O)c2cccc(CCC(=O)O)c2)cc1", "human recombinant kinase full-length AKT1 E17K (Homo sapiens, UniProt P31749, E17K)", "6.70 to 7.30"),
    ("Nc1ncccc1-c1nc2ccc(-c3ccccc3)nc2n1-c1ccc(NC(=O)c2cccc(C(=O)O)c2F)c(F)c1", "human recombinant kinase full-length AKT1 E17K (Homo sapiens, UniProt P31749, E17K)", "6.30 to 6.70"),
    ("C[C@@H](c1ccc(C(=O)O)cc1F)N1CC(c2ccc(-n3c(-c4cccnc4N)nc4ccc(-c5ccccc5)nc43)cc2)C1", "human recombinant kinase full-length AKT1 E17K (Homo sapiens, UniProt P31749, E17K)", "6.30 to 6.70"),
    ("Nc1ncccc1-c1nc2ccc(-c3ccccc3)nc2n1-c1ccc(CNC(=O)c2ccc(CCC(=O)O)cc2)cc1", "human recombinant kinase full-length AKT1 E17K (Homo sapiens, UniProt P31749, E17K)", "> 7.30"),
    ("Nc1ncccc1-c1nc2ccc(-c3ccccc3)nc2n1-c1ccc(CNC(=O)c2cccc(CC(=O)O)c2)cc1", "human recombinant kinase full-length AKT1 E17K (Homo sapiens, UniProt P31749, E17K)", "6.70 to 7.30"),
    ("Nc1ncccc1-c1nc2ccc(-c3ccccc3)nc2n1-c1ccc(C(=O)Nc2ccc(C(=O)O)cc2F)nc1", "human recombinant kinase full-length AKT1 E17K (Homo sapiens, UniProt P31749, E17K)", "6.30 to 6.70"),
    ("CC(=O)Nc1ccc(-c2ccc3nc(-c4cccnc4N)n(-c4ccc(CNC(=O)c5cccc(CC(=O)O)c5)cc4)c3n2)cc1", "human recombinant kinase full-length AKT1 E17K (Homo sapiens, UniProt P31749, E17K)", "6.30 to 6.70"),
    ("Nc1ncccc1-c1nc2ccc(-c3ccccc3)nc2n1-c1ccc(NC(=O)c2cccc(CCC(=O)O)c2)cc1", "human recombinant kinase full-length AKT1 E17K (Homo sapiens, UniProt P31749, E17K)", "> 7.30"),
    ("Nc1ncccc1-c1nc2ccc(-c3ccccc3)nc2n1-c1ccc(C2CN(Cc3ccc(C(=O)O)cc3)C2)cc1", "human recombinant kinase full-length AKT1 E17K (Homo sapiens, UniProt P31749, E17K)", "6.70 to 7.30"),
]
